Recorded values, source patent US12617783B2.

target: human GLP-1R (Homo sapiens); construct: host or cells: HEK293; test: GLP-1R cAMP assay (Example B1a, HTRF, 30 min at room temperature); assay type: cell-based; conditions: cAMP accumulation in HEK293 expressing human GLP-1R, no BETP, 30 min room temperature (Method B1a, compounds ID 1-609), Table 1; read-out: EC50
Sequence (P43220 24-463): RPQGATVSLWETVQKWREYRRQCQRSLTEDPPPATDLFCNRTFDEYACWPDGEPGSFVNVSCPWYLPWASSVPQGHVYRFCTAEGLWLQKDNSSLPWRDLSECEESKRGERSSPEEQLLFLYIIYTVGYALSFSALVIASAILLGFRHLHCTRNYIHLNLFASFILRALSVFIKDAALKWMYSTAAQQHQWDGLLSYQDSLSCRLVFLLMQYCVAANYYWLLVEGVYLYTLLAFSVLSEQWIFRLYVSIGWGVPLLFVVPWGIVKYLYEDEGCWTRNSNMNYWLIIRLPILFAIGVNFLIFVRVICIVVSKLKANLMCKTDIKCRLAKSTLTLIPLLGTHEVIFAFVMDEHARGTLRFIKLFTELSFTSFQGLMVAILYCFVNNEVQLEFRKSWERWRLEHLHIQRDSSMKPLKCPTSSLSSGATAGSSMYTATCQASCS
measurement_kind: pEC50
Scale for pEC50: -log10 of concentration given in mol/L; no unit attached.

Would you please look over these solved cases?
[[record]]
molecule = "Cc1cc(-n2nc3c(c2-n2ccn(-c4ccc5c(cnn5C)c4F)c2=O)[C@@H]2CC[C@H](C3)N2C(=O)c2cc3cc(C4CCOC(C)(C)C4)ncc3n2[C@@]2(c3noc(=O)[nH]3)C[C@@H]2C)cc(C)c1F (stereo partly drawn)"
measured_on = "human GLP-1R (Homo sapiens)"
quantitative_result = 6.93

[[record]]
molecule = "Cc1cc(-n2nc3c(c2-n2ccn(-c4ccc5c(cnn5C)c4F)c2=O)[C@@H]2CC[C@H](C3)N2S(=O)(=O)c2cc3cc(C4CCOC(C)(C)C4)ccc3n2[C@@]2(c3noc(=O)[nH]3)C[C@@H]2C)cc(C)c1F (stereo partly drawn)"
measured_on = "human GLP-1R (Homo sapiens)"
quantitative_result = 7.01

[[record]]
molecule = "Cc1cc(-n2nc3c(c2-n2ccn(-c4ccc5c(cnn5C)c4F)c2=O)[C@@H]2COC[C@H](C3)N2C(=O)c2cc3cc(C4CCOC5(CC5)C4)ccc3n2[C@@]2(c3noc(=O)[nH]3)C[C@@H]2C)cc(C)c1F (stereo partly drawn)"
measured_on = "human GLP-1R (Homo sapiens)"
quantitative_result = 6.10

[[record]]
molecule = "Cc1cc(-n2nc3c(c2-n2ccn(-c4cc(F)c5c(cnn5C)c4F)c2=O)[C@@H]2COC[C@H](C3)N2C(=O)c2cc3cc(C4CCOC5(CC5)C4)ccc3n2[C@@]2(c3noc(=O)[nH]3)C[C@@H]2C)cc(C)c1F (stereo partly drawn)"
measured_on = "human GLP-1R (Homo sapiens)"
quantitative_result = 6.77

[[record]]
molecule = "Cc1cc(-n2nc3c(c2-n2ccn(-c4ccc5c(cnn5C)c4F)c2=O)[C@@H]2CCC[C@H](C3)N2S(=O)(=O)c2cc3cc(C4CCOCC4)ccc3n2[C@@]2(c3noc(=O)[nH]3)C[C@@H]2C)cc(C)c1F"
measured_on = "human GLP-1R (Homo sapiens)"
quantitative_result = 4.98


Field: next molecule
Record `CC[C@H]1C[C@]1(c1noc(=O)[nH]1)n1c(C(=O)N2[C@@H]3CC[C@H]2c2c(nn(-c4cc(C)c(F)c(C)c4)c2-n2ccn(-c4ccc5c(cnn5C)c4F)c2=O)C3)cc2cc([C@H]3CCOC(C)(C)C3)ccc21` ; system human GLP-1R (Homo sapiens); pEC50 = 6.76

---

target: human GLP-1R (Homo sapiens); construct: host or cells: HEK293; assay: GLP-1R cAMP assay (Example B1a, HTRF, 30 min at room temperature); type: cell-based; details: cAMP accumulation in HEK293 expressing human GLP-1R, no BETP, 30 min room temperature (Method B1a, compounds ID 1-609), Table 1; read-out: EC50
pEC50: −log10 of the molar value.
measurement_kind: pEC50

[[record]]
compound = "Cc1cc(-n2nc3c(c2-n2ccn(-c4ccc5c(cnn5C)c4F)c2=O)[C@H]2CC[C@@H](C3)N2C(=O)c2cc3cc([C@H]4CCOC5(CC5)C4)ccc3n2[C@@]2(c3noc(=O)[nH]3)C[C@H]2C)cc(C)c1F"
measurement_kind = "pEC50"
result = "≤ 5.00"

[[record]]
compound = "Cc1cc(-n2nc3c(c2-n2ccn(-c4ccc5c(cnn5C)c4F)c2=O)[C@@H]2CC[C@H](C3)N2C(=O)c2cc3cc(C4CCOC5(COC5)C4)ccc3n2C2(c3noc(=O)[nH]3)CC2)cc(C)c1F (stereo partly shown)"
measurement_kind = "pEC50"
result = "< 5.00"

[[record]]
compound = "Cc1cc(-n2nc3c(c2-n2ccn(-c4ccc5c(cnn5C)c4F)c2=O)[C@H]2CC[C@@H](C3)N2C(=O)c2cc3cc([C@@H]4CCOC5(CC5)C4)ccc3n2[C@]2(c3noc(=O)[nH]3)C[C@H]2C)cc(C)c1F"
measurement_kind = "pEC50"
result = "≤ 5.00"


Now consider the entry below.
Per the record, `Cc1cc(-n2nc3c(c2-n2ccn(-c4ccc5c(cnn5C)c4F)c2=O)[C@@H]2CCC[C@H](C3)N2S(=O)(=O)c2cc3cc([C@H]4CCOC5(CC5)C4)ccc3n2[C@@]2(c3noc(=O)[nH]3)C[C@@H]2C)cc(C)c1F` has pEC50 of ≤ 5.00
